Study System: Adenosine kinase (Toxoplasma gondii, UniProt Q9TVW2)
Sequence (Q9TVW2 whole entry): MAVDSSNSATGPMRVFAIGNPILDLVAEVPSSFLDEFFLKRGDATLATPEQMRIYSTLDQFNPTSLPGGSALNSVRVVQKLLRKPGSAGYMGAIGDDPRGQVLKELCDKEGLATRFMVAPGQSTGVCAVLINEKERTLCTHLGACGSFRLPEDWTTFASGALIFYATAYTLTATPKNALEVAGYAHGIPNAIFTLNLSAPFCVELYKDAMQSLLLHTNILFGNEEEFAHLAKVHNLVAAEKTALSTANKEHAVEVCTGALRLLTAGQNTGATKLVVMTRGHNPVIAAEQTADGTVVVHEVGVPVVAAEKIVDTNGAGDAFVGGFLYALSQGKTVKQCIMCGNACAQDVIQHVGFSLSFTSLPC
Protocol Details: Inhibition of Toxoplasma gondii adenosine kinase
Binned Ki; ranges: low: < 2000 nM; intermediate: ≥ 2000 nM and < 3000 nM; high: ≥ 3000 nM

Consider the following illustrative entries.
Molecule	Qualitative Label
N#Cc1ccc(CSc2ncnc3c2ncn3[C@@H]2O[C@H](CO)[C@@H](O)[C@H]2O)cc1	low
OC[C@H]1O[C@@H](n2cnc3c(SCc4cccc(C(F)(F)F)c4)ncnc32)[C@H](O)[C@@H]1O	intermediate
OC[C@H]1O[C@@H](n2cnc3c(SCc4ccc(OC(F)(F)F)cc4)ncnc32)[C@H](O)[C@@H]1O	high
OC[C@H]1O[C@@H](n2cnc3c(SCc4ccc(F)cc4)ncnc32)[C@H](O)[C@@H]1O	low
OC[C@H]1O[C@@H](n2cnc3c(SCc4ccc(Cl)c(Cl)c4)ncnc32)[C@H](O)[C@@H]1O	intermediate
OC[C@H]1O[C@@H](n2cnc3c(SCc4ccc(Cl)cc4)ncnc32)[C@H](O)[C@@H]1O	intermediate

Lookup: Which class is correct for the following molecule? Cc1cccc(CSc2ncnc3c2ncn3[C@@H]2O[C@H](CO)[C@@H](O)[C@H]2O)c1
Found: low

Lookup: Which class is correct for the following molecule? CC(=O)Oc1ccc(CSc2ncnc3c2ncn3[C@@H]2O[C@H](CO)[C@@H](O)[C@H]2O)cc1
Found: high

Lookup: Which class is correct for the following molecule? OC[C@H]1O[C@@H](n2cnc3c(SCc4ccccc4Cl)ncnc32)[C@H](O)[C@@H]1O
Found: low

Lookup: Which class is correct for the following molecule? CC(C)(C)c1ccc(CSc2ncnc3c2ncn3[C@@H]2O[C@H](CO)[C@@H](O)[C@H]2O)cc1
Found: high

----------
Kindly supply the reported Ki values for the records listed here.
Study System: Adenosine kinase (Toxoplasma gondii, UniProt Q9TVW2)
Protocol Details: Inhibition of Toxoplasma gondii adenosine kinase
Answers are plain numbers, in µM.

Worked cases, Ki given:
Compound	Ki (µM)
COc1ccc(CSc2ncnc3c2ncn3[C@@H]2O[C@H](CO)[C@@H](O)[C@H]2O)cc1	2.6
OC[C@H]1O[C@@H](n2cnc3c(SCc4ccc(Br)cc4)ncnc32)[C@H](O)[C@@H]1O	7.5
OC[C@H]1O[C@@H](n2cnc3c(SCc4ccc(Cl)cc4Cl)ncnc32)[C@H](O)[C@@H]1O	0.7
OC[C@H]1O[C@@H](n2cnc3c(SCc4ccccc4)ncnc32)[C@H](O)[C@@H]1O	2.4
OC[C@H]1O[C@@H](n2cnc3c(SCc4c(F)cccc4Cl)ncnc32)[C@H](O)[C@@H]1O	37.7

Could you report Ki for every entry in the following list?
1. Cc1cc(C)c(CSc2ncnc3c2ncn3[C@@H]2O[C@H](CO)[C@@H](O)[C@H]2O)c(C)c1
2. Cc1ccc(CSc2ncnc3c2ncn3[C@@H]2O[C@H](CO)[C@@H](O)[C@H]2O)cc1
3. O=[N+]([O-])c1cccc(CSc2ncnc3c2ncn3[C@@H]2O[C@H](CO)[C@@H](O)[C@H]2O)c1
4. Cc1ccccc1CSc1ncnc2c1ncn2[C@@H]1O[C@H](CO)[C@@H](O)[C@H]1O

Found:
[150, 3.3, 3, 1.5]

Lookup: # query: Ki of entry O=[N+]([O-])c1ccc(CSc2ncnc3c2ncn3[C@@H]2O[C@H](CO)[C@@H](O)[C@H]2O)cc1 [NITROBENZYLMERCAPTOPURINE RIBONUCLEOSIDE]
Found: 1.1
